Each record here notes measured IC50.
- target or test system: Epidermal growth factor receptor [T790M,L858R] (Homo sapiens, UniProt P00533, L858R/T790M)
- Sequence (P00533 25-1210 T790M/L858R limits assumed): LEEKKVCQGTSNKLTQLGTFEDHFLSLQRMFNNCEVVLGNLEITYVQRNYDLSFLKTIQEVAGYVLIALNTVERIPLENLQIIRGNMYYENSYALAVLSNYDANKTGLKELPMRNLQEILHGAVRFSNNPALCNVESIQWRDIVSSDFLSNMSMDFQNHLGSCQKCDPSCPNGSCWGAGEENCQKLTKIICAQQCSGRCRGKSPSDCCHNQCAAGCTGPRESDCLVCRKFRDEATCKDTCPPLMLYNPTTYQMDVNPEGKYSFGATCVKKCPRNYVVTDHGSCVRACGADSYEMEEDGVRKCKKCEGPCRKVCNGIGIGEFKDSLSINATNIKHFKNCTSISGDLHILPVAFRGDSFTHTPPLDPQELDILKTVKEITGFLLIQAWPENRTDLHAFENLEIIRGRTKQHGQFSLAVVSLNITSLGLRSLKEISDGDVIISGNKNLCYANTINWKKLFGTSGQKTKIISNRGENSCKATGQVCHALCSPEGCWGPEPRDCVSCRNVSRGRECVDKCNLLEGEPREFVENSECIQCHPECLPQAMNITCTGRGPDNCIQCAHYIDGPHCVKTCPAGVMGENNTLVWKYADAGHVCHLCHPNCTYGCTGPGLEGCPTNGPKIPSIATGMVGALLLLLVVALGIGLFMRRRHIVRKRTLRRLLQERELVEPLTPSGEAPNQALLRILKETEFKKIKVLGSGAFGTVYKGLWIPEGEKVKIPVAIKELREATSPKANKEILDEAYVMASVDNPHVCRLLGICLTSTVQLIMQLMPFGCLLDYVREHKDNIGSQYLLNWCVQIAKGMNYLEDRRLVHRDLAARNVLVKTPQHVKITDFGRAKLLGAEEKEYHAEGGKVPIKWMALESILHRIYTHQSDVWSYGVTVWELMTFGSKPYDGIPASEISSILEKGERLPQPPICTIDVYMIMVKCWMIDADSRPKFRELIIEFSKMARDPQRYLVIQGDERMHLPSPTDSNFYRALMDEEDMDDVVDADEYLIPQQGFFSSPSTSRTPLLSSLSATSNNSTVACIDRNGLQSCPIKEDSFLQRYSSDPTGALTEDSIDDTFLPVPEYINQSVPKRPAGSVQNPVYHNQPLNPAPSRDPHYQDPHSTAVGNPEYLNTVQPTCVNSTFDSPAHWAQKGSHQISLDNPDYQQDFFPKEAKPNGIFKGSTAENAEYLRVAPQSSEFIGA
- experiment description: Inhibitory Activity for EGFR (L858R/T790M) Kinase
Unit nM implied. Number only.

CCN1CCC(Nc2ccc3c(c2)N/C2=N\C(=O)c4cc(C)nc(c4)-c4cnn(C)c4OCCC[C@@H](C4CC4)CN23)CC1 [US20250034165, Example 48]    0.023

For record CNCCCCNc1ccc2c(c1)N/C1=N/C(=O)c3cc(C)nc(c3)-c3cnn(C)c3OCCC[C@@H](C3CC3)CN12 [US20250034165, Example 52] the listed IC50 is 0.026

For record [2H]C([2H])([2H])N(C[C@H](C)Nc1ccc2c(c1)N/C1=N/C(=O)c3cc(C)nc(c3)-c3cnn(C)c3OCCC[C@@H](C3CC3)CN12)C([2H])([2H])[2H] [US20250034165, Example 124] the listed IC50 is 0.22

For record [2H]C([2H])([2H])N(C[C@H](C)Nc1ccc2c(c1)N1C[C@H](C3CC3)CCCOc3c(cnn3C)-c3cc(cc(C)n3)C(=O)/N=C\1N2)C([2H])([2H])[2H] [US20250034165, Example 123] the listed IC50 is 0.16

For record CNCCCNc1ccc2c(c1)N/C1=N\C(=O)c3cc(C)nc(c3)-c3cnn(C)c3OCCC[C@@H](C3CC3)CN12 [US20250034165, Example 49] the listed IC50 is 0.048

For record [2H]C([2H])([2H])N(C[C@@H](C)Nc1ccc2c(c1)N/C1=N/C(=O)c3cc(C)nc(c3)-c3cnn(C)c3OCCC[C@@H](C3CC3)CN12)C([2H])([2H])[2H] [US20250034165, Example 146] the listed IC50 is 0.52

###

- target or test system: Epidermal growth factor receptor [T790M,C797S,L858R] (UniProt P00533, C797S/L858R/T790M)
- Sequence (P00533 25-1210 T790M/C797S/L858R limits assumed): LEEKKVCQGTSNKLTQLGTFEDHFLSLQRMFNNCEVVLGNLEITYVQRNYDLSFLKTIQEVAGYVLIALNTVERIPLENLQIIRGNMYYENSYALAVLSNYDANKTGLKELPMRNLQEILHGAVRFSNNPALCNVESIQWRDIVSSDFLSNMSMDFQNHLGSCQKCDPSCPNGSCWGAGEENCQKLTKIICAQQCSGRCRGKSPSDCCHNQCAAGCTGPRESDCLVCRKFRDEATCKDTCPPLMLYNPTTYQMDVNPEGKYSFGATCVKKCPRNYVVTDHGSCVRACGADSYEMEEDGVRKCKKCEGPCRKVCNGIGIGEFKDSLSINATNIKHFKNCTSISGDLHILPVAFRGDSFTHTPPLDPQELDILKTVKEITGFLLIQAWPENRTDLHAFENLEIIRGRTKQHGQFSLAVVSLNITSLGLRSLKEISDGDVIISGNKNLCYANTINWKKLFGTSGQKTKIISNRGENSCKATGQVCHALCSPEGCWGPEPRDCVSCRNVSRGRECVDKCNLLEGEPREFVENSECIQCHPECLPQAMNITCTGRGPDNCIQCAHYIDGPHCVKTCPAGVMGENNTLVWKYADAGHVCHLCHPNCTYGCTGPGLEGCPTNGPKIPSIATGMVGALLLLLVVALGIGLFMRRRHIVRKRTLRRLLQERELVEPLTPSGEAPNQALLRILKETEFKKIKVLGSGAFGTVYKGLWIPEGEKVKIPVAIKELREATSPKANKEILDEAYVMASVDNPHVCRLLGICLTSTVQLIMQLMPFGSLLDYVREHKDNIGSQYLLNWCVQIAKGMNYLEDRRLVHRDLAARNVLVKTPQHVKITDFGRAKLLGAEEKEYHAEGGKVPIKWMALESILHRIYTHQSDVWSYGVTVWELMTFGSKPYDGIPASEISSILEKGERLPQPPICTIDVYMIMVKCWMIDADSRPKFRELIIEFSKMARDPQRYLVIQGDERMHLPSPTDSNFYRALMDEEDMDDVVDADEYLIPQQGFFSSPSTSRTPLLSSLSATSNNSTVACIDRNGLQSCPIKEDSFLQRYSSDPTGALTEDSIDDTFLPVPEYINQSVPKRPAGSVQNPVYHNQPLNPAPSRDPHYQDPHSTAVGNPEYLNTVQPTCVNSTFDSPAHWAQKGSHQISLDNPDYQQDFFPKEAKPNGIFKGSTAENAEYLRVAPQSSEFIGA
- experiment description: Inhibitory Activity for EGFR (L858R/T790M/C797S) Kinase
- Description: A 50 ng/μL EGFR (L858R/T790M/C797S, BPS) stock solution was diluted with a kinase buffer (50 mM HEPES, 10 mM MgCl2, 2 mM DTT, 1 mM EGTA, 0.01% Tween 20), and 6 μL of 1.67× working solution at 0.00167 ng/μL (final concentration: 0.001 ng/μL) was added to each well. […]
parameter: pIC50
A value of pIC50 is the negative decimal logarithm of a concentration given in moles per litre.

For record Cc1cc2cc(n1)-c1cnn(C)c1OCCC[C@@H](C1CC1)CN1/C(=N/C2=O)Nc2ccc(NCCN3CCCC3)cc21 [US20250034165, Example 82] the listed pIC50 is 10.85

For record Cc1cc2cc(n1)-c1cnn(C)c1OCCC[C@@H](C1CC1)CN1/C(=N/C2=O)Nc2cc(N[C@@H]3CC[C@H](N(C)C)C3)ccc21 [US20250034165, Example 133] the listed pIC50 is 9.18

###

Each record here notes measured IC50.
- target or test system: Epidermal growth factor receptor (EGFR)(L858R)(T790M) (Homo sapiens, UniProt P00533, L858R/T790M)
- Sequence (P00533 25-1210 T790M/L858R limits assumed): as the sequence (P00533 25-1210 T790M/L858R limits assumed) above
- experiment description: Inhibitory Activity for EGFR (L858R/T790M) Kinase
Unit nM implied. Number only.

Examples from the recorded data:
Cc1cc2cc(n1)-c1cnn(C3CC3)c1OCCC[C@@H](C)CN1/C(=N/C2=O)Nc2cc(NC3CCN(C)CC3)ccc21 [US20250034165, Example 12]    0.19
Cc1cc2cc(n1)-c1cnn(C)c1OCCC[C@@H](C1CC1)CN1/C(=N/C2=O)Nc2ccc(N[C@H](C)CCN3CCCCC3)cc21 [US20250034165, Example 143]    0.11

Moving on to the next compound.
For record Cc1cc2cc(n1)-c1cnn(C)c1OCCC[C@@H](C1CC1)CN1/C(=N/C2=O)Nc2cc(NC3C(C)(C)OC3(C)C)ccc21 [US20250034165, Example 31] the listed IC50 is 0.038

###

- target or test system: Epidermal growth factor receptor (EGFR)(L858R)(T790M) (Homo sapiens, UniProt P00533, L858R/T790M)
- experiment description: Inhibitory Activity for EGFR (L858R/T790M) Kinase
parameter: pIC50
A value of pIC50 is the negative decimal logarithm of a concentration given in moles per litre.

Cc1cc2cc(n1)-c1cnn(C)c1OCCC[C@@H](C1CC1)CN1/C(=N/C2=O)Nc2cc(NC3(C)COC3)ccc21 [US20250034165, Example 29]    10.72
Cc1cc2cc(n1)-c1cnn(C3CC3)c1OCCC[C@@H](C)CN1/C(=N/C2=O)Nc2cc(NC[C@H]3COCCO3)ccc21 [US20250034165, Example 14]    9.96

Moving on to the next compound.
For record Cc1cc2cc(n1)-c1cnn(C)c1OCCC[C@@H](C1CC1)CN1/C(=N/C2=O)Nc2cc(NC3COC3(C)C)ccc21 (stereo partly drawn) [US20250034165, Example 30] the listed pIC50 is 9.89

###

Each record here notes measured pIC50.
- target or test system: Epidermal growth factor receptor (EGFR)(L858R)(T790M) (Homo sapiens, UniProt P00533, L858R/T790M)
- experiment description: Inhibitory Activity for EGFR (L858R/T790M) Kinase
A value of pIC50 is the negative decimal logarithm of a concentration given in moles per litre.

Examples from the recorded data:
Cc1cc2cc(n1)-c1cnn(C)c1OCCC[C@@H](C1CC1)CN1/C(=N/C2=O)Nc2cc(NCC3(C)COC3)ccc21    10.57
Cc1cc2cc(n1)-c1cnn(C)c1OCCC[C@@H](C1CC1)CN1/C(=N/C2=O)Nc2cc(N[C@H](C)CN3CCCCC3)ccc21    9.89
Cc1cc2cc(n1)-c1cnn(C)c1OCCC[C@@H](C1CC1)CN1/C(=N/C2=O)Nc2cc(NCCCCN)ccc21    10.96
Cc1cc2cc(n1)-c1cnn(C)c1OCCC[C@@H](C1CC1)CN1/C(=N/C2=O)Nc2ccc(N[C@H]3CC[C@H](N(C)C)C3)cc21    9.15
Cc1cc2cc(n1)-c1cnn(C)c1OCCC[C@@H](C1CC1)CN1/C(=N/C2=O)Nc2cc(N[C@@H](C)CN3CCCCC3)ccc21    9.89
Cc1cc2cc(n1)-c1cnn(C)c1OCCC[C@@H](C1CC1)CN1/C(=N/C2=O)Nc2ccc(NCCCN3CCCC3)cc21    10.00

For record Cc1cc2cc(n1)-c1cnn(C)c1OCCC[C@@H](C1CC1)CN1/C(=N/C2=O)Nc2ccc(OCCN(C)C)cc21 the listed pIC50 is 10.36

For record Cc1cc2cc(n1)-c1cnn(C)c1OCCC[C@@H](C1CC1)CN1/C(=N/C2=O)Nc2ccc(NC(C)CN(C)C)cc21 (stereo partly drawn) the listed pIC50 is 11.05

###

- target or test system: Epidermal growth factor receptor [T790M,C797S,L858R] (UniProt P00533, C797S/L858R/T790M)
- experiment description: Inhibitory Activity for EGFR (L858R/T790M/C797S) Kinase
Each record here notes measured IC50.
Unit nM implied. Number only.

Cc1cc2cc(n1)-c1cnn(C)c1OCCC[C@@H](C1CC1)CN1/C(=N/C2=O)Nc2cc(N[C@@H]3CCCOC3)ccc21 [US20250034165, Example 18]    0.051
Cc1cc2cc(n1)-c1cnn(C)c1OCCC[C@@H](C1CC1)CN1/C(=N/C2=O)Nc2cc(NC(C)C3(C)COC3)ccc21 (stereo partly drawn) [US20250034165, Example 89]    0.6

Summary line: Cc1cc2cc(n1)-c1cnn(C)c1OCCC[C@@H](C1CC1)CN1/C(=N/C2=O)Nc2ccc(NCCCN3CCCCC3)cc21 [US20250034165, Example 80] , Epidermal growth factor receptor [T790M,C797S,L858R] (UniProt P00533, C797S/L858R/T790M), reported IC50 = 0.019

###

Each record here notes measured log10 of IC50.
- target or test system: Epidermal growth factor receptor (EGFR)(L858R)(T790M) (Homo sapiens, UniProt P00533, L858R/T790M)
- experiment description: Inhibitory Activity for EGFR (L858R/T790M) Kinase
Give log10 of IC50, with IC50 taken in nM.

Cc1cc2cc(n1)-c1cnn(C)c1OCCC[C@@H](C1CC1)CN1/C(=N/C2=O)Nc2ccc(NCCN)cc21 [US20250034165, Example 58]    -1.92

For record Cc1cc2cc(n1)-c1cnn(C)c1OCCC[C@@H](C1CC1)CN1/C(=N/C2=O)Nc2ccc(N[C@@H]3CC[C@@H](N(C)C)C3)cc21 [US20250034165, Example 130] the listed log10 of IC50 is -0.52

For record Cc1cc2cc(n1)-c1cnn(C)c1OCCC[C@@H](C1CC1)CN1/C(=N/C2=O)Nc2ccc(NCCCN(C)C)cc21 [US20250034165, Example 27] the listed log10 of IC50 is -1.52

For record Cc1cc2cc(n1)-c1cnn(C)c1OCCC[C@@H](C1CC1)CN1/C(=N/C2=O)Nc2cc(NCCN(C)C)ccc21 [US20250034165, Example 42] the listed log10 of IC50 is -1.89
